FYI, the data here is from ChEMBL document CHEMBL3217409.

target_under_test: Melatonin receptor type 1B (Homo sapiens, UniProt P49286)
Sequence (P49286 whole entry): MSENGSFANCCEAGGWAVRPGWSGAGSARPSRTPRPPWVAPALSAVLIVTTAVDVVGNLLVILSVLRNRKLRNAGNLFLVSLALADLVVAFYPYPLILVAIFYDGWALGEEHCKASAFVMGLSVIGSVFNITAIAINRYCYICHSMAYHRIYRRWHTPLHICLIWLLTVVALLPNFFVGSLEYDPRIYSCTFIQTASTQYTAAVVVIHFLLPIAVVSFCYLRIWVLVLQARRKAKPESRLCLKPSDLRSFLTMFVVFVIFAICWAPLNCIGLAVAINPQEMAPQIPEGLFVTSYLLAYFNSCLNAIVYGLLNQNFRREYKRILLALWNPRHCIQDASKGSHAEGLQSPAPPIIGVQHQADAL
readout: Ki (nM)

Check out these entries, answers already filled in.
| compound_smiles | result_value |
| --- | --- |
| C=CCC(=O)NCCc1c(CN2Cc3ccccc3C2)[nH]c2ccc(OC)cc12 | 9.33 |
| CCC(=O)NCCc1c(CN2Cc3ccccc3C2)[nH]c2ccc(OC)cc12 | 3.72 |
| COc1ccc2[nH]c(Cn3ccc4ccccc43)c(CCNC(=O)C3CCC3)c2c1 | 81.3 |

A: CCC(=O)NCCCc1cc(OC)ccc1OCc1cccc(OC)c1
B: COc1ccc2[nH]c(Cn3ccc4ccccc43)c(CCNC(C)=O)c2c1
Look at A and B . Which one has the lower recorded Ki number? When you have decided, please share the label of that item.
A
(A: 1.7 nM, B: 5.75 nM)

====

Measurement record for UniProt P48039; quantity recorded: Ki.
Sequence (P48039 whole entry): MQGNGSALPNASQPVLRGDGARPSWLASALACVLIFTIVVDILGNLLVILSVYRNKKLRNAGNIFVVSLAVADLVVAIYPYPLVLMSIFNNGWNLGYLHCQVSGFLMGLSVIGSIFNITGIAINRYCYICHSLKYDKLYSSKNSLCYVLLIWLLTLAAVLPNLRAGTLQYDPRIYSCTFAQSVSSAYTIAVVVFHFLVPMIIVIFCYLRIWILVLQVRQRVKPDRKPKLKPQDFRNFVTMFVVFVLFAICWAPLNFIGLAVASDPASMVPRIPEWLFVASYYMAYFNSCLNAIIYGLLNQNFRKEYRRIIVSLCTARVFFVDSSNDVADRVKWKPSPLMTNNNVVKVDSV
readout: Ki (nM)

A: COc1ccc2[nH]c(CN3Cc4ccccc4C3)c(CCNC(=O)C3CC3)c2c1
B: COc1ccc2[nH]c(CN3CCc4ccccc4C3)c(CCNC(C)=O)c2c1
Recorded Ki values differ for A and B ; which one is higher? Reply with the label of the item you choose.
B
